Test: Clearance in mouse plasma at 2 mg/kg, iv
Type: ADME, organism-based
Design: dose 2 mg/kg, route intravenous
METRIC_NAME: clearance (mL/min/kg)
Your answer is read as mL/min/kg, so omit the unit and give the number.

Record `Cc1c(CC2=NN(Cc3ccc(F)cc3F)C(=O)CC2)c2cc(F)ccc2n1CC(=O)O` . Reported clearance: 9

====

Assay: in vivo
Settings: rat, plasma, iv, 2 mg/kg
Description: Clearance in rat plasma at 2 mg/kg, iv
METRIC_NAME: clearance (mL/min/kg)
Quick note: give the figure in mL/min/kg, leave out the unit.

// clearance value for `Cc1c(CC2=NN(Cc3ccccc3)C(=O)CC2)c2cc(F)ccc2n1CC(=O)O` : 13

====

Test: in vitro
Details: human, plasma
Description: Plasma protein binding in human
Can you tell me fraction unbound for the items I'm about to list?

Record `Cc1c(Cc2ccc(=O)n(Cc3ccccc3)n2)c2cc(Cl)ccc2n1CC(=O)O` . Reported fraction unbound: < 0.02

In plain terms, `Cc1c(CC2=NN(Cc3ccc(F)cc3F)C(=O)CC2)c2cc(F)ccc2n1CC(=O)O` has a documented fraction unbound of < 0.02

# compound `Cc1c(Cc2ccc(=O)n(Cc3ccc(C(C)(C)O)cc3)n2)c2cc(F)ccc2n1CC(=O)O` ; its fraction unbound = < 0.02

====

Assay: in vivo
Conditions: rat, po, 10 mg/kg
METRIC_NAME: Cmax

Looking up `Cc1c(CC2=NN(Cc3ccccc3)C(=O)CC2)c2cc(F)ccc2n1CC(=O)O` , I found its Cmax recorded as 484 ng/mL

====

Experiment: Oral bioavailability in mouse at 10 mg/kg
Assay type: ADME, organism-based
Conditions: in vivo
METRIC_NAME: bioavailability (%)
Write the value in % as a bare number.

Please fill in: bioavailability reported for `Cc1c(CC2=NN(Cc3ccc(F)cc3F)C(=O)CC2)c2cc(F)ccc2n1CC(=O)O` = 41

====

Target: Prostaglandin D2 receptor 2 (Homo sapiens)
Sequence (Q9Y5Y4 whole entry): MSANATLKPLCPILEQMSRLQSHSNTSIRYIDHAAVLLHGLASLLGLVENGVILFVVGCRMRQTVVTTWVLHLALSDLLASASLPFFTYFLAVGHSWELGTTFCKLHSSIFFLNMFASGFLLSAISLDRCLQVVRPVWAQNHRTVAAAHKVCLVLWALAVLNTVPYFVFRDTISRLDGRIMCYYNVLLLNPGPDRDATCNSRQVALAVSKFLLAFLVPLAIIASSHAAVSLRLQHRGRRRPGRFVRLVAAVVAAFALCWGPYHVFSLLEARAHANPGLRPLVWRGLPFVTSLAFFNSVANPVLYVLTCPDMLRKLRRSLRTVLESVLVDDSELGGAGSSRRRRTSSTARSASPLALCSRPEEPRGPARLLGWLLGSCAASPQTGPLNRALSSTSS
Assay: biochemical
Description: Displacement of [3H]PGD2 from recombinant human CRTH2 receptor expressed in CHO-K1 cells after 30 min by FRET method
IC50 vs 10 nM: less than gives Fulfilled; not less than gives Not fulfilled.

Lab log: compare recorded IC50 with 10 nM; is it strictly lower for `Cc1c(Cc2ccc(=O)n(Cc3ccccc3)n2)c2cc(F)ccc2n1CC(=O)O` ?
Fulfilled

Please state whether IC50 is below 10 nM for `COc1ccc2c(c1)c(-c1ccc(=O)n(Cc3ccccc3)n1)c(C)n2CC(=O)O`
Not fulfilled

Does the reported IC50 of the following compound sit strictly below 10 nM? `Cc1c(-c2ccc(=O)n(Cc3ccccc3)n2)c2cc(Cl)cc(Cl)c2n1CC(=O)O`
Not fulfilled

Just wondering, is IC50 of `Cc1c(Cc2ccc(=O)n(Cc3ccncc3)n2)c2cc(F)ccc2n1CC(=O)O` below 10 nM?
Not fulfilled

Bench note: check whether `Cc1c(Cc2nn(Cc3ccccc3)c(=O)c3ccccc23)c2cc(Cl)ccc2n1CC(=O)O` shows IC50 below 10 nM
Not fulfilled

====

Test: Cmax in mouse at 10 mg/kg, po
Format: ADME, organism-based
Set-up: dose 10 mg/kg, route oral
Conditions: in vivo
METRIC_NAME: Cmax (µg/mL)
Please state the figure in µg/mL; there is no need to write the unit.

Documented Cmax of `Cc1c(CC2=NN(Cc3ccc(F)cc3F)C(=O)CC2)c2cc(F)ccc2n1CC(=O)O` : 1.89

====

Molecular target: Prostaglandin D2 receptor 2 (Homo sapiens, UniProt Q9Y5Y4)
Experiment: biochemical
So I've got a bunch of compounds here, and I need their IC50 values.
Give the number; nM is assumed, so skip it.

response.value for `Cc1c(-c2ccc(=O)n(Cc3ccccc3)n2)c2cc(F)ccc2n1CC(=O)O` (field: IC50) = 23

get_value(item= `Cc1c(-c2ccc(=O)n(Cc3ccccc3)n2)c2cc(Cl)ccc2n1CC(=O)O` , readout=IC50) returns 28

The measured IC50 associated with Cc1c(C2=NN(Cc3ccccc3)C(=O)C3CCCCC23)c2cc(F)ccc2n1CC(=O)O (centres undefined) reads 109

Kindly note the recorded IC50 for `Cc1c(CC2=NN(Cc3ccccc3)C(=O)CC2)c2cc(F)ccc2n1CC(=O)O` , which is 16

IC50 for `Cc1c(Cc2ccc(=O)n(Cc3ccc(C(C)(C)O)cc3)n2)c2cc(F)ccc2n1CC(=O)O` is 5

The compound listed as `Cc1c(-c2nn(Cc3ccccc3)c(=O)c3ccccc23)c2cc(Cl)ccc2n1CC(=O)O` has a reported IC50 of 11

Memo: `Cc1c(-c2nn(Cc3ccccc3)c(=O)c3ccccc23)c2cc(F)ccc2n1CC(=O)O` , reported IC50: 11

====

Test: Half life in mouse liver microsomes
Assay type: ADME, Microsome
METRIC_NAME: half-life (min)
All answers are understood in min, so give the number only.

Record summary for `Cc1c(-c2nn(CCOc3ccc(Cl)cc3)c(=O)c3ccccc23)c2cc(Cl)ccc2n1CC(=O)O` : reported half-life = 11

====

Assay: Clearance in mouse
Type: ADME, organism-based
Settings: in vivo
METRIC_NAME: clearance (mL/min/kg)
Reply with just the number (in mL/min/kg).

clearance recorded for this compound, `Cc1c(-c2ccc(=O)n(Cc3ccc(F)cc3)n2)c2cc(F)ccc2n1CC(=O)O` , is 6.9

====

Experiment: Half life in mouse at 2 mg/kg, iv
Assay type: ADME, organism-based
Design: dose 2 mg/kg, route intravenous
Details: in vivo
METRIC_NAME: half-life (h)
Hi! Could you send only the number? It should be in h, unit omitted.

The recorded half-life for entry `Cc1c(CC2=NN(Cc3ccc(F)cc3F)C(=O)CC2)c2cc(F)ccc2n1CC(=O)O` equals 4

====

Assay: Dissociation constant, pKa of the compound
Format: physicochemical
Entry flag: yes (1) if pKa reaches 4; no (0) if it does not.

Could you please find out whether `Cc1c(-c2ccc(=O)n(Cc3ccccc3)n2)c2ccccc2n1CC(=O)O` has pKa that meets 4 or exceeds it?
yes (1)

Tell me whether pKa is at least 4 here: `Cc1c(-c2ccc(=O)n(Cc3ccccc3)n2)c2cc(F)cc(Cl)c2n1CC(=O)O`
no (0)

Can `Cc1c(-c2ccc(=O)n(Cc3ccccc3)n2)c2cc(F)cc(F)c2n1CC(=O)O` be said to have pKa at or above 4?
no (0)

Determine whether this compound has pKa no lower than 4: `Cc1c(-c2ccc(=O)n(Cc3ccccc3)n2)c2cc(S(C)(=O)=O)cc(F)c2n1CC(=O)O`
no (0)

Answer whether pKa of `Cc1c(-c2ccc(=O)n(Cc3ccccc3)n2)c2cc(Cl)cc(Cl)c2n1CC(=O)O` is greater than or equal to 4.
no (0)

Determine whether measured pKa meets or exceeds 4 for `Cc1ccc2c(c1)c(-c1ccc(=O)n(Cc3ccccc3)n1)c(C)n2CC(=O)O`
yes (1)

Is it the case that `Cc1c(-c2ccc(=O)n(Cc3ccccc3)n2)c2cc(Cl)cc(F)c2n1CC(=O)O` has pKa reaching or exceeding 4?
no (0)

Check the entry `Cc1c(-c2ccc(=O)n(Cc3ccccc3)n2)c2cc(F)cc(S(C)(=O)=O)c2n1CC(=O)O` : does pKa equal or exceed 4?
no (0)

====

Target: Prostaglandin D2 receptor 2 (Homo sapiens, UniProt Q9Y5Y4)
Sequence (Q9Y5Y4 whole entry): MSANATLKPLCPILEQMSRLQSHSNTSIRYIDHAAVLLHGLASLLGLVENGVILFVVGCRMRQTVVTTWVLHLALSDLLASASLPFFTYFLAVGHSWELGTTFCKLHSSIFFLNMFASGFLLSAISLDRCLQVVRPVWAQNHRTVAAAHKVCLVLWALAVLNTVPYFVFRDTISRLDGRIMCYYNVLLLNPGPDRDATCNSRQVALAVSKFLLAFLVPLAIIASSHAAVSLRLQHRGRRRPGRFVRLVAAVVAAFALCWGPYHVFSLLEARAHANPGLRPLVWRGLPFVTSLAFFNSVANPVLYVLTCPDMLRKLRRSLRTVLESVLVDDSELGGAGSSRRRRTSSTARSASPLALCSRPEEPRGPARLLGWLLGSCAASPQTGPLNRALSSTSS
Settings: cho-k1
Description: Displacement of [3H]PGD2 from recombinant human CRTH2 receptor expressed in CHO-K1 cells after 30 min by FRET method
METRIC_NAME: pIC50
pIC50 here is simply -log10 of the concentration when that concentration is written in mol/L.

Prostaglandin D2 receptor 2 (Homo sapiens, UniProt Q9Y5Y4) assay, compound `Cc1c(-c2ccc(=O)n(Cc3ccc(F)cc3)n2)c2cc(F)ccc2n1CC(=O)O` , recorded pIC50 = 7.70
